# Tested on: MCF-7
# PROTOCOL SUMMARY: MTT survival assay, breast cancer cell line (MCF-7)
# Type: cell-based, human
# STATED CONDITIONS: Homo sapiens, MCF7, Bliss method, unit not printed (concentrations in μg/ml), read-out: IC50 (95% confidence level)
QUANTITY NAME: IC50 (µg/mL)
Give the number; µg/mL is assumed, so skip it.

Consider the following illustrative entries.
COMPOUND	READING UNIT	IC50
Cc1ccc(S(=O)(=O)NCC(=O)NCC(c2ccccc2)c2c[nH]c3ccccc23)cc1 (stereo not shown)	µg/mL	14.1
COc1ccccc1NC(=O)CSc1nc(-c2ccccc2)nc2ccccc12	µg/mL	145
O=C(CSc1cc(COc2ccc(Br)cc2)[nH]n1)c1ccccc1	µg/mL	9.93

Next item in the queue.
Give the reported IC50 for this compound. `O=C(Nc1ccnc2[nH]ccc12)c1cc2ccccc2s1`
94.2

* * *

Each entry below lists one item and its recorded OD(A570 nm) value.
# System: MCF-7
# PROTOCOL SUMMARY: MTT survival assay, breast cancer cell line (MCF-7)
# Assay type: cell-based, human
# STATED CONDITIONS: 50 μg/ml
Reply with just the number.

Consider the following illustrative entries.
MOLECULE	OD(A570 nm)
O=C(Nc1ccnc2[nH]ccc12)c1cc2ccccc2s1	0.490
O=C(CSc1cc(COc2ccc(Br)cc2)[nH]n1)c1ccccc1	0.069
Cc1ccc(S(=O)(=O)NCC(=O)NCC(c2ccccc2)c2c[nH]c3ccccc23)cc1 (stereo not shown)	0.098

Next item in the queue.
Give the reported OD(A570 nm) for this molecule. `COc1ccccc1NC(=O)CSc1nc(-c2ccccc2)nc2ccccc12`
0.527

* * *

# Tested on: MCF-7
# PROTOCOL SUMMARY: MTT survival assay, breast cancer cell line (MCF-7)
# Format: cell-based, human
# STATED CONDITIONS: 25 μg/ml
Each entry below lists one item and its recorded OD(A570 nm) value.
Reply with just the number.

Consider the following illustrative entries.
MOLECULE	QUANTITY NAME	ENDPOINT RESULT
Cc1ccc(S(=O)(=O)NCC(=O)NCC(c2ccccc2)c2c[nH]c3ccccc23)cc1 (stereo not shown)	OD(A570 nm)	0.094
O=C(Nc1ccnc2[nH]ccc12)c1cc2ccccc2s1	OD(A570 nm)	0.705
COc1ccccc1NC(=O)CSc1nc(-c2ccccc2)nc2ccccc12	OD(A570 nm)	0.587

Give the reported OD(A570 nm) for this molecule. `O=C(CSc1cc(COc2ccc(Br)cc2)[nH]n1)c1ccccc1`
0.098

* * *

# Test system: MCF-7
# PROTOCOL SUMMARY: MTT survival assay, breast cancer cell line (MCF-7)
# Type: cell-based, human
# STATED CONDITIONS: 12.5 μg/ml
QUANTITY NAME: OD(A570 nm)

COMPOUND	OD(A570 nm)
O=C(Nc1ccnc2[nH]ccc12)c1cc2ccccc2s1	0.752 ± 0.164
O=C(CSc1cc(COc2ccc(Br)cc2)[nH]n1)c1ccccc1	0.346 ± 0.022
COc1ccccc1NC(=O)CSc1nc(-c2ccccc2)nc2ccccc12	0.791 ± 0.151

Next item in the queue.
Give the reported OD(A570 nm) for this compound. Cc1ccc(S(=O)(=O)NCC(=O)NCC(c2ccccc2)c2c[nH]c3ccccc23)cc1 (stereo not shown)
0.649 ± 0.036
